Test system: Rattus norvegicus
Test: In vivo antidyslipidemic activity against Triton WR 1339-induced hyperlipidemic Wistar rat model assessed as decrease in total cholesterol level in plasma at 56 umol/kg, ip administered as single dose 1 hr after Triton WR 1339 challenge measured after 24 hrs
Type: functional
measure_name: inhibition in vivo at 56 µmol/kg (%)
The response must be a number in % with no trailing unit.

Worked examples, 4 molecules total:
* CN1CCOC(O)(c2ccc3c(c2)Nc2ccccc2S3)C1 (racemic) | 70
* CCC(C)(C)C(=O)O[C@H]1C[C@@H](C)C=C2C=C[C@H](C)[C@H](CC[C@@H]3C[C@@H](O)CC(=O)O3)[C@H]21 | 75
* CC(C)(Sc1cc(C(C)(C)C)c(O)c(C(C)(C)C)c1)Sc1cc(C(C)(C)C)c(O)c(C(C)(C)C)c1 | 18
* CN1CC(O)(c2ccc3c(c2)Nc2ccccc2S3)OC2CCCCC21 (racemic) | 50

API: the following record is the query input.
Problem: Return the recorded inhibition in vivo at 56 µmol/kg value; entry: CN1CC(O)(c2ccc(-c3ccccc3)cc2)Sc2ccccc21 (stereo unspecified)
Result: 58

====

Assay: Antioxidant activity in rat liver microsome membrane assessed as inhibition of lipid peroxidation after 45 mins by TBARS-based spectrophotometric assay
Type: functional, microsomes
pIC50: −log10 of the molar value.
measure_name: pIC50

Worked examples, 3 compounds total:
• CN1CCOC(O)(c2ccc3c(c2)N(C)c2ccccc2S3)C1 (racemic) = 4.15
• CN1c2ccccc2Sc2ccc(C3(O)CN4CCCCC4CO3)cc21 (racemic) = 4.17
• OC1(c2ccc3c(c2)Nc2ccccc2S3)CN2CCCCC2CO1 (racemic) = 6.26

I. CN1c2ccccc2Sc2ccc(C3(O)CN(C)C4CCCCC4O3)cc21 (racemic)
II. CN1CC(O)(c2ccc3c(c2)Nc2ccccc2S3)Oc2ccccc21 (stereo not given)
Problem: Compare the recorded pIC50 of I and II ; state which is larger. Selection: enter the item's label.
Result: II
(II: 5.80, I: 4.24)

====

Tested on: Rattus norvegicus
Assay: In vivo antidyslipidemic activity against Triton WR 1339-induced hyperlipidemic Wistar rat model assessed as decrease in total cholesterol level in plasma at 56 umol/kg, ip administered as single dose 1 hr after Triton WR 1339 challenge measured after 24 hrs
Type: functional
measure_name: inhibition in vivo at 56 µmol/kg (%)
The response must be a number in % with no trailing unit.

Worked examples, 3 compounds total:
* CN1CC(O)(c2ccc(-c3ccccc3)cc2)OC2CCCCC21 (stereo unspecified) | 54
* OC1(c2ccc3c(c2)Nc2ccccc2S3)CN2CCCCC2CO1 (racemic) | 36
* CN1c2ccccc2Sc2ccc(C3(O)CN(C)C4CCCCC4O3)cc21 (racemic) | 26

Problem: Return the recorded inhibition in vivo at 56 µmol/kg value; entry: CN1c2ccccc2Sc2ccc(C3(O)CN4CCCCC4CO3)cc21 (racemic)
Result: 55

Problem: Return the recorded inhibition in vivo at 56 µmol/kg value; entry: CC(=O)N1c2ccccc2Sc2ccc(C3(O)CN(C)CCO3)cc21 (racemic)
Result: 63

Problem: Return the recorded inhibition in vivo at 56 µmol/kg value; entry: CN1CC(O)(c2ccc(-c3ccccc3)cc2)Oc2ccccc21 (stereo unspecified)
Result: 62

====

Assay: Antioxidant activity in rat liver microsome membrane assessed as inhibition of lipid peroxidation after 45 mins by TBARS-based spectrophotometric assay
Type: functional, microsomes
pIC50: −log10 of the molar value.
measure_name: pIC50

- CN1CC(O)(c2ccc3c(c2)Nc2ccccc2S3)OC2CCCCC21 (racemic): 6.03

1. CN1CC(O)(c2ccc3c(c2)Nc2ccccc2S3)Sc2ccccc21 (stereo not given)
2. CN1CC(O)(c2ccc(-c3ccccc3)cc2)OC2CCCCC21 (stereo not given)
3. CN1CC(O)(c2ccc(-c3ccccc3)cc2)Oc2ccccc21 (stereo not given)
Problem: Highest pIC50 first, then in falling order down to the smallest. // format: requested-order list of labels
Result: 1, 3, 2
(1: 6.01, 3: 5.05, 2: 3.35)
